Every entry's value here was drawn from patent US20170008888A1.

Biological target: BRD4 bromodomain domain I [BRD4(1)] (Homo sapiens, UniProt O60885)
Construct: BRD4 bromodomain domain I [BRD4(1)]; purchased Cayman Chemicals
Test: BRD4 bromodomain domain 1 inhibition assay (TR-FRET)
Format: binding
Conditions: screening concentration 10 μM
Recorded inhibition at 10 µM by entry

Examples with answers:
INSERT INTO measurements (molecule_smiles, assay_result) VALUES
  ('CCOc1cc(C(=O)N2CC[C@@H](N(C)C)C2)ccc1Nc1cc2c(cn1)N(C)C(=O)c1ccccc1N2C', '70 to 85%'),
  ('CCOc1cc(C(=O)NCCN(CC)CC)ccc1Nc1cc2c(cn1)N(C)C(=O)c1ccccc1N2C', '70 to 85%'),
  ('CCOc1cc(C(=O)N2CC[C@@H](N3CCCC3)C2)ccc1Nc1cc2c(cn1)N(C)C(=O)c1ccccc1N2C', '> 85%'),
  ('CN1C(=O)c2ccccc2N(C)c2cc(Nc3ccc(C(=O)N4CC[C@@H](N(C)C)C4)cc3F)ncc21', '< 70%'),
  ('CCOc1cc(C(=O)N2CCC(N3CCN(C)CC3)CC2)ccc1Nc1cc2c(cn1)N(C)C(=O)c1ccccc1N2C', '> 85%'),
  ('CN1C(=O)c2ccccc2N(C)c2cc(N[C@H]3CC[C@H](Nc4ncccn4)CC3)ncc21', '< 70%');

Okay, now this compound:
Requested field: inhibition at 10 µM. Item: CCOc1cc(C(=O)N2CC[C@@H](NC)C2)ccc1Nc1cc2c(cn1)N(C)C(=O)c1ccccc1N2C > 85%

* * *

System: diseased primary human synovial fibroblasts
Assay: Cytokine response by primary human synovial fibroblasts stimulated with IL-17A, TNF-α or both
Format: cell-based
Conditions: Fibroblast, 48 h, +TNF-α 10 ng/ml, read-out: EC50 (μM), RANTES
measured attribute: EC50 (µM)
Give the value, in units of µM, as a plain number.

Requested field: EC50. Item: CCOc1cc(C(=O)N2CCC(N3CCN(C)CC3)CC2)ccc1Nc1cc2c(cn1)N(C)C(=O)c1ccccc1N2C [Compound 61] 2.78

* * *

Tested on: AurB or AurC
Assay: Probe-based (AX9989) kinase profiling in Jurkat lysate: AurB or AurC
Type: binding
Conditions: screening concentration 1.0 μM
measured attribute: Kinase inhibition % at indicated screening concentration: AurB or AurC

Examples with answers:
INSERT INTO assay_data (compound, system, assay_result) VALUES
  ('CCOc1cc(C(=O)O)ccc1Nc1cc2c(cn1)N(C)C(=O)c1ccccc1N2C [Compound 18]', 'AurB or AurC', 'E (E is ≦35%)'),
  ('CN1C(=O)c2ccccc2N(C)c2cc(N[C@H]3CC[C@H](NC(=O)N4CCCC4)CC3)ncc21 [Compound 60]', 'AurB or AurC', 'E (E is ≦35%)'),
  ('CCOc1cc(C(=O)N2CCC(CN3CCOCC3)CC2)ccc1Nc1cc2c(cn1)N(C)C(=O)c1ccccc1N2C [Compound 120]', 'AurB or AurC', 'E (E is ≦35%)'),
  ('COc1cc(C)c(Nc2cc3c(cn2)N(C)C(=O)c2ccccc2N3C)cn1 [Compound 116]', 'AurB or AurC', 'E (E is ≦35%)'),
  ('CCOc1cc(C(=O)NCCN2CCN(C)CC2)ccc1Nc1cc2c(cn1)N(C)C(=O)c1ccccc1N2C [Compound 44]', 'AurB or AurC', 'E (E is ≦35%)'),
  ('CCOc1cc(C(=O)NCCN2CCCC2)ccc1Nc1cc2c(cn1)N(C)C(=O)c1ccccc1N2C [Compound 105]', 'AurB or AurC', 'E (E is ≦35%)'),
  ('CN1C(=O)c2ccccc2N(C)c2cc(Nc3ccccc3Cl)ncc21 [Compound 86]', 'AurB or AurC', 'E (E is ≦35%)');

Okay, now this compound:
Requested field: Kinase inhibition % at indicated screening concentration: AurB or AurC. Item: Cc1nn(C)cc1Nc1cc2c(cn1)N(C)C(=O)c1ccccc1N2C [Compound 22] E (E is ≦35%)

* * *

Recorded inhibition at 1 µM by entry
Biological target: JAK1 (Homo sapiens)
Construct: screened for activity against several kinases in Jurkat cells; endogenous in cells; host or cells: Jurkat cell lysate
Sequence (P23458 whole entry): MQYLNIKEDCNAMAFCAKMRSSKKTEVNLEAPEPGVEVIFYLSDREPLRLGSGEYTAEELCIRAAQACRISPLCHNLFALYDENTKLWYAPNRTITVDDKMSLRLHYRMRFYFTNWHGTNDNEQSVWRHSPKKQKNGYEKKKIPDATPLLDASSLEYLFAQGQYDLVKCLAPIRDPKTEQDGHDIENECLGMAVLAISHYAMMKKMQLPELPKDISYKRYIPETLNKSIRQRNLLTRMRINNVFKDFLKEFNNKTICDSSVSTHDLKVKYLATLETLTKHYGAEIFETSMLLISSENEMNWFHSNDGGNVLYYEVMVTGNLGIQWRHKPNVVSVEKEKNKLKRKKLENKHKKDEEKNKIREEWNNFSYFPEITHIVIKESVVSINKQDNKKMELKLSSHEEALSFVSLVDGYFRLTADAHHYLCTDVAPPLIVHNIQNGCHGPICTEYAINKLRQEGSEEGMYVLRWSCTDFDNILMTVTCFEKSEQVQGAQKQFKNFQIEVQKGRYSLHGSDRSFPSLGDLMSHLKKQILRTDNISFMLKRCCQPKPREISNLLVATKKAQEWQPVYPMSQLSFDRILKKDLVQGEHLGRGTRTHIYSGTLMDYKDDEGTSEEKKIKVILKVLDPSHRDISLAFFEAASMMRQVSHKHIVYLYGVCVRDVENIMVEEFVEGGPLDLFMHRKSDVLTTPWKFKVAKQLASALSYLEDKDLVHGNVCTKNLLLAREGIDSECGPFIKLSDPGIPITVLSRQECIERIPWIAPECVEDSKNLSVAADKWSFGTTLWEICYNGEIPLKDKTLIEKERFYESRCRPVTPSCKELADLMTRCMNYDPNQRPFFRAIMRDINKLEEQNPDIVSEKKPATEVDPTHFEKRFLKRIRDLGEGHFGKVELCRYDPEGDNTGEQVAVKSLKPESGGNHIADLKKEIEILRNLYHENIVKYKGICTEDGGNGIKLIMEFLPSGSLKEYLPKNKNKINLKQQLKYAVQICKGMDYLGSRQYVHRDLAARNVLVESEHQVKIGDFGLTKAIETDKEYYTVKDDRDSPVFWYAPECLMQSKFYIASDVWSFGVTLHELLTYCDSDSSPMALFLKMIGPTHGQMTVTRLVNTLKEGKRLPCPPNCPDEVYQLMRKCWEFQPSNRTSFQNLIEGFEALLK
Assay: Probe-based (AX9989) kinase profiling in Jurkat lysate: JAK1
Format: binding
Conditions: screening concentration 1.0 μM; read-out: Kinase inhibition % at indicated screening concentration: JAK1

Examples with answers:
INSERT INTO measurements (compound, assay_result) VALUES
  ('CC(=O)NC1CCC(Nc2cc3c(cn2)N(C)C(=O)c2ccccc2N3C)CC1 (centres unmarked) [Compound 98]', '≤ 35%'),
  ('CCOc1cc(C(=O)NC2CCOCC2)ccc1Nc1cc2c(cn1)N(C)C(=O)c1ccccc1N2C [Compound 80]', '≤ 35%'),
  ('CN1C(=O)c2occc2N(C)c2cc(N[C@H]3CC[C@H](N)CC3)ncc21 [Compound 53]', '≤ 35%');

Requested field: inhibition at 1 µM. Item: CCOc1cc(C(=O)N2CCC(OC)CC2)ccc1Nc1cc2c(cn1)N(C)C(=O)c1ccccc1N2C [Compound 63] ≤ 35%

Requested field: inhibition at 1 µM. Item: CCOc1cc(C(=O)NCCc2ccncc2)ccc1Nc1cc2c(cn1)N(C)C(=O)c1ccccc1N2C [Compound 107] ≤ 35%

* * *

System: human PBMCs
Experiment: Cytokine response by primary human PBMCs stimulated with PMA/ionomycin or LPS
Type: cell-based
Details: PBMC, PMA/ionomycin 20 h, read-out: EC50 (μM) under PMA/ionomycin stimulation, IL-6
Recorded EC50 by entry
Give the value, in units of µM, as a plain number.

Requested field: EC50. Item: CCOc1cc(C(=O)N2CCC(N3CCCC3)CC2)ccc1Nc1cc2c(cn1)N(C)C(=O)c1ccccc1N2C 0.9

Requested field: EC50. Item: CCOc1cc(C(=O)N2CCCN(C)CC2)ccc1Nc1cc2c(cn1)N(C)C(=O)c1ccccc1N2C 2.35

* * *

Recorded EC50 by entry
System: human PBMCs
Assay: Cytokine response by primary human PBMCs stimulated with PMA/ionomycin or LPS
Assay type: cell-based
Settings: PBMC, PMA/ionomycin 20 h, read-out: EC50 (μM) under PMA/ionomycin stimulation, IL-10
Give the value, in units of µM, as a plain number.

INSERT INTO assay_data (molecule, system, assay_result) VALUES
  ('CCOc1cc(C(=O)N2CCCN(C)CC2)ccc1Nc1cc2c(cn1)N(C)C(=O)c1ccccc1N2C [Compound 8]', 'human PBMCs', 0.627);

Okay, now this molecule:
Requested field: EC50. Item: CCOc1cc(C(=O)N2CCC(N3CCCC3)CC2)ccc1Nc1cc2c(cn1)N(C)C(=O)c1ccccc1N2C [Compound 46] 0.181

* * *

Target: UniProt P51531
Sequence (P51531 1378-1506 limits assumed): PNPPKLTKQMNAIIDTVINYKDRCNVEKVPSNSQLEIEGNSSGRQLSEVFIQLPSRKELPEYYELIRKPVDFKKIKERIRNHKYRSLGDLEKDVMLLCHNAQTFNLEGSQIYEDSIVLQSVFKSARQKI
Assay: Bromodomain binding assay: SMARCA2
measured attribute: Kd

INSERT INTO results (molecule_smiles, measured_attribute, assay_result) VALUES
  ('CCOc1cc(C(=O)N2CCC(N3CCCC3)CC2)ccc1Nc1cc2c(cn1)N(C)C(=O)c1ccccc1N2C', 'Kd', '> 20 µM');

Okay, now this compound:
Requested field: Kd. Item: CCOc1cc(C(=O)N[C@H]2CC[C@H](O)CC2)ccc1Nc1cc2c(cn1)N(C)C(=O)c1ccccc1N2C > 20 µM

* * *

Target: JAK1 (Homo sapiens)
Construct: screened for activity against several kinases in Jurkat cells; endogenous in cells; host or cells: Jurkat cell lysate
Test: Probe-based (AX9989) kinase profiling in Jurkat lysate: JAK1
Format: binding
Conditions: screening concentration 1.0 μM; read-out: Kinase inhibition % at indicated screening concentration: JAK1
Recorded inhibition at 1 µM by entry

Examples with answers:
INSERT INTO assay_data (compound, measured_attribute, assay_result) VALUES
  ('CCOc1cc(C(=O)N(CC)CCN(CC)CC)ccc1Nc1cc2c(cn1)N(C)C(=O)c1ccccc1N2C [Compound 122]', 'inhibition at 1 µM', '≤ 35%'),
  ('CCOc1cc(C(=O)N2CCN(CC)CC2)ccc1Nc1cc2c(cn1)N(C)C(=O)c1ccccc1N2C [Compound 108]', 'inhibition at 1 µM', '≤ 35%');

Okay, now this compound:
Lab note: need inhibition at 1 µM with JAK1 (Homo sapiens) for entry CN1C(=O)c2ccccc2N(C)c2cc(N[C@H]3CC[C@H](Nc4ncccn4)CC3)ncc21 [Compound 47] , please look it up. ≤ 35%

* * *

Target: ACK (Homo sapiens)
Construct: screened for activity against several kinases in Jurkat cells; endogenous in cells; host or cells: Jurkat cell lysate
Sequence (Q07912 whole entry): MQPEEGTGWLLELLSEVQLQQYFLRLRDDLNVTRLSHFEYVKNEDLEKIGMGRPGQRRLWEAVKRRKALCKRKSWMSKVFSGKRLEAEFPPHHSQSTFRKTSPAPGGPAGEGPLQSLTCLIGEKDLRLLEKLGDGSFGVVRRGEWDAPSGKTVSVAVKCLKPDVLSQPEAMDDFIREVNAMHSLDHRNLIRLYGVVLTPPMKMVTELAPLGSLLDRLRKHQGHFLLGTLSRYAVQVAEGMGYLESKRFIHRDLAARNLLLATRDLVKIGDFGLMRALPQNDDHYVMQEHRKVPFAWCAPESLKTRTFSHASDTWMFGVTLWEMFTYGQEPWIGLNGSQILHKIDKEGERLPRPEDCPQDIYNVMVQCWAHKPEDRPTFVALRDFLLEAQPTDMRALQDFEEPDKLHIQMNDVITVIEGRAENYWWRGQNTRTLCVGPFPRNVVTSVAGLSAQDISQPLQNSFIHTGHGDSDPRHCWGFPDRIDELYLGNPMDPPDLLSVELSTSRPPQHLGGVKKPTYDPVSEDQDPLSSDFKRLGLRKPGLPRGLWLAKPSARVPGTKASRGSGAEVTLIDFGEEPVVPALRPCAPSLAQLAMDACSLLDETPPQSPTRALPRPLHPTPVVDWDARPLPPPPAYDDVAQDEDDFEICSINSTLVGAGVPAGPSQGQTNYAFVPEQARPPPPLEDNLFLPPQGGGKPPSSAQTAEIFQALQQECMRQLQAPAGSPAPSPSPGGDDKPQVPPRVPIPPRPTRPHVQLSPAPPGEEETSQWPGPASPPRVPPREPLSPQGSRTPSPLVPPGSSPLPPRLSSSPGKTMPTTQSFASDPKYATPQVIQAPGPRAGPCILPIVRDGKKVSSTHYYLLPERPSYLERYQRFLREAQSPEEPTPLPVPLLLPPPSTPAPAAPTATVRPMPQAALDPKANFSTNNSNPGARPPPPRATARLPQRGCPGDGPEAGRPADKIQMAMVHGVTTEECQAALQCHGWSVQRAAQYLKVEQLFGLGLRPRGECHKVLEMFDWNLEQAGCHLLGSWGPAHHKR
Assay: Probe-based (AX9989) kinase profiling in Jurkat lysate: ACK
Assay type: binding
Settings: screening concentration 1.0 μM; read-out: Kinase inhibition % at indicated screening concentration: ACK
measured attribute: inhibition at 1 µM

Examples with answers:
INSERT INTO assay_data (compound, system, assay_result) VALUES
  ('CCOc1cc(C(=O)NCCOCCO)ccc1Nc1cc2c(cn1)N(C)C(=O)c1ccccc1N2C', 'ACK (Homo sapiens)', '≤ 35%'),
  ('CN1C(=O)c2ccccc2N(C)c2cc(NC3CCC(N)CC3)ncc21 (centres unmarked)', 'ACK (Homo sapiens)', '≤ 35%'),
  ('CC(=O)NC1CCC(Nc2cc3c(cn2)N(C)C(=O)c2ccccc2N3C)CC1 (centres unmarked)', 'ACK (Homo sapiens)', '≤ 35%'),
  ('CN1C(=O)c2ccccc2N(C)c2cc(N[C@H]3CC[C@H](NC4=NCCO4)CC3)ncc21', 'ACK (Homo sapiens)', '≤ 35%'),
  ('COc1ccccc1Nc1cc2c(cn1)N(C)C(=O)c1ccccc1N2C', 'ACK (Homo sapiens)', '≤ 35%');

Requested field: inhibition at 1 µM. Item: CCOc1cc(C(=O)NCCN2CCCC2)ccc1Nc1cc2c(cn1)N(C)C(=O)c1ccccc1N2C ≤ 35%

Requested field: inhibition at 1 µM. Item: Cc1ccccc1Nc1cc2c(cn1)N(C)C(=O)c1ccccc1N2C ≤ 35%

Requested field: inhibition at 1 µM. Item: CCOc1cc(C(=O)N2CCC(N3CCCC3)CC2)ccc1Nc1cc2c(cn1)N(C)C(=O)c1scnc1N2C ≤ 35%
